biological target: EGFR (mutated) 695-1022, T790M, C797S, L858R (Homo sapiens (Human), UniProt P00533, C797S/L858R/T790M); experiment: Biochemical EGFR inhibition assay (TR-FRET, poly-GT substrate), EGFR T790M C797S L858R; details: read-out: LR_TM_CS (5 μM ATP) IC50; 5 μM ATP
Sequence (P00533 695-1022 T790M/C797S/L858R): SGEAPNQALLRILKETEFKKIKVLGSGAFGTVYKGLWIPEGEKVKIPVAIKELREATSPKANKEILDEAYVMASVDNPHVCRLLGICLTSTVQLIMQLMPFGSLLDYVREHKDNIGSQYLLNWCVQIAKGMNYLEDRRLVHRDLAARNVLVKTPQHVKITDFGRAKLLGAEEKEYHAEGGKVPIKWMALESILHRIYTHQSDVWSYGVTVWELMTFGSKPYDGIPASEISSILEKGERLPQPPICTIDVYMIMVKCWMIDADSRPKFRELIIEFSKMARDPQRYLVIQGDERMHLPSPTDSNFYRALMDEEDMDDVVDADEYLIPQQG
Measured Property: IC50 (nM)

compound="COc1ccccc1-c1cc(C(=O)/N=c2\\[nH]c3cc(C)ccc3n2[C@H]2CC[C@@H](O)CC2)ccn1 [I-109]" experimental_result=0.5
compound="CC(=O)N1CCC(c2ccc3c(c2)[nH]/c(=N\\C(=O)c2cc(C)nc(-c4cnn(C)c4)c2)n3[C@H]2CC[C@@H](O)CC2)CC1 [I-205]" experimental_result=3.6

A: COc1c(F)cccc1-c1cc(C(=O)/N=c2\[nH]c3ccccc3n2[C@H]2CC[C@@H](O)CC2)ccn1 [I-175]
B: Cn1cc(-c2cc(C(=O)/N=c3\[nH]c4ccccc4n3[C@H]3CC[C@H](O)CC3)ccn2)cn1 [I-036]
Exercise: Name the one with the greater IC50 value, either A or B as given. Use the label to indicate which entry you chose.
Solution: A
